system: MRSA 562; assay: MIC, agar incorporation method; assay type: cell-based, Staphylococcus aureus; conditions: MRSA 562; agar incorporation; Table 1
Give measured MIC for each item. Keep answers brief.
Give the value in µg/mL but do not write µg/mL after it.

Noted for CC(=O)NC[C@H]1CN(c2ccc(N3CCN(Cc4cc(Br)cs4)CC3)c(F)c2)C(=O)O1 : its MIC reads 2

Sure, the documented MIC for CC(=O)NC[C@H]1CN(c2ccc(N3CCN(Cc4ccc(Br)s4)CC3)c(F)c2)C(=O)O1 is 2

Form field MIC, entry CC(=O)NC[C@H]1CN(c2ccc(N3CC4C(CN(C)Cc5ccc([N+](=O)[O-])o5)C4C3)c(F)c2)C(=O)O1 (stereo partly shown) : 1

CC(=O)NC[C@H]1CN(c2ccc(N3CCN(Cc4ccc([N+](=O)[O-])o4)CC3)c(F)c2)C(=O)O1 has a reported MIC of 2
